# Test system: 628569-122-R-J1-PDC complex spheroid viability;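 note: spheroids exposed to agents for seven days before readout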
# Measurement protocol: Anticancer human tumor 628569-122-R-J1-PDC patient-derived head and neck squamous carcinoma cell line growth inhibition [CLK]
# Condition set: second compound 10 µM; first compound 3.16 µM; stronger effect = lower value
# Excerpt: A high-throughput screen of multi-cell type tumor spheroids was designed to identify active combinations of […] and targeted small molecules. Complex spheroids include a stromal component modeled by human endothelial cells (HUVEC) and fibroblasts modeled by human mesenchymal stem cells (MSCs). […] Compounds. […] If the clinical Cmax for an agent had not been determined, the highest concentration tested was 10 microM. […]
viability, T/C strictly less than 40% = Criterion met. Otherwise Criterion not met.

Observe how each entry below is paired with its result.
[
  {
    "Molecule": "C#Cc1c(F)ccc2cc(O)cc(-c3ncc4c(N5CC6CCC(C5)N6)nc(OCC56CCCN5CC(F)C6)nc4c3F)c12 (centres undefined) + CNC(=O)c1ccc(Nc2nc(OC3CCCC3)c3c(-c4ccc5nc(C)oc5c4)c[nH]c3n2)c(OC)c1",
    "Tested system": "628569-122-R-J1-PDC complex spheroid viability",
    "Category label": "Criterion not met"
  },
  {
    "Molecule": "CC(CO)NC(=O)c1cc(-c2ccc(Cl)cc2)nn(-c2cnn(C)c2)c1=O (centres undefined) + CNC(=O)c1ccc(Nc2nc(OC3CCCC3)c3c(-c4ccc5nc(C)oc5c4)c[nH]c3n2)c(OC)c1",
    "Tested system": "628569-122-R-J1-PDC complex spheroid viability",
    "Category label": "Criterion not met"
  },
  {
    "Molecule": "Nc1ccccc1NC(=O)c1ccc(CNC(=O)OCc2cccnc2)cc1 + CNC(=O)c1ccc(Nc2nc(OC3CCCC3)c3c(-c4ccc5nc(C)oc5c4)c[nH]c3n2)c(OC)c1",
    "Tested system": "628569-122-R-J1-PDC complex spheroid viability",
    "Category label": "Criterion not met"
  },
  {
    "Molecule": "CC(CO)NC(=O)c1cc(-c2ccc(Cl)cc2)nn(-c2cnn(C)c2)c1=O (centres undefined) + CN1CCN(c2cc(C(=O)Nc3cc4cc(-c5cnn(C)c5)ccc4cn3)ccn2)CC1",
    "Tested system": "628569-122-R-J1-PDC complex spheroid viability",
    "Category label": "Criterion met"
  }
]

q: I'd appreciate it if you could check whether COC1C=CCC(C)C(C)S(=O)(=O)NC(=O)c2ccc3c(c2)N(CC2CCC21)CC1(CCCc2cc(Cl)ccc21)CO3 (centres undefined) + CNC(=O)c1ccc(Nc2nc(OC3CCCC3)c3c(-c4ccc5nc(C)oc5c4)c[nH]c3n2)c(OC)c1 has viability, T/C smaller than 40%.
a: Criterion met

q: I'd appreciate it if you could check whether COc1cccc2c1C(=O)c1c(O)c3c(c(O)c1C2=O)CC(O)(C(=O)CO)CC3OC1CC(N)C(O)C(C)O1 (centres undefined) + CN1CCN(c2cc(C(=O)Nc3cc4cc(-c5cnn(C)c5)ccc4cn3)ccn2)CC1 has viability, T/C smaller than 40%.
a: Criterion met
